Assay: in vivo
Assay type: in vivo, mice
Settings: male, CD-1, mouse, CSF, ip, 10 mg/kg, mice, IP 10 mg/kg, CSF, 5 min, mean; read-out: CSF concentrations of cmpd 7827_0016 in mice following IP (10 mg/kg) administration, C
readoutType: concentration at 5 min
Respond with a number, then the unit of measure.

### Prompt Give concentration at 5 min for O=C(O)C1CCC2(CC1)CC(Nc1ncnc3[nH]c4c(F)cccc4c13)C2 (stereo not shown)
### Response 15.7 ng/mL

* * *

Test: in vivo
Assay type: in vivo, mice
Details: male, CD-1, mouse, CSF, ip, 10 mg/kg, mice, IP 10 mg/kg, CSF, 1440 min, individual animals; read-out: CSF concentration, Final (individual sample)
readoutType: concentration at 1440 min (ng/mL)
One number for each entry, in ng/mL.

### Prompt Retrieve concentration at 1440 min measured for CCc1nc2c(C)nc(C)cc2n1-c1ccc(CCNC(=O)NS(=O)(=O)c2ccc(C)cc2)cc1 [Grapiprant, reference compound] and print it.
### Response 0

* * *

Assay: in vivo
Type: in vivo, mice
Details: male, CD-1, mouse, plasma, iv, 10 mg/kg, mice, IV 10 mg/kg, plasma, 120 min; read-out: Plasma concentration C (mean)
readoutType: concentration at 120 min (µg/mL)
Answers are plain numbers, in µg/mL.

### Prompt Using the record for O=C([O-])C1CCC2(CC1)CC(Nc1ncnc3[nH]c4c(F)cccc4c13)C2.[Na+] (stereo not shown) , state its measured concentration at 120 min.
### Response 4.09

* * *

Assay: in vivo
Assay type: in vivo, mice
Details: male, CD-1, mouse, plasma, iv, 10 mg/kg, mice, IV 10 mg/kg, plasma, 5 min, single animals; read-out: Plasma concentration, Final (individual mouse)
readoutType: concentration at 5 min (µg/mL)
Give bare numbers, in µg/mL.

### Prompt Report measured concentration at 5 min; entry is O=C([O-])C1CCC2(CC1)CC(Nc1ncnc3[nH]c4c(F)cccc4c13)C2.[Na+] (stereo not shown) [Compound 77]
### Response 24.1

* * *

Assay: in vivo
Format: in vivo, mice
Conditions: male, CD-1, mouse, plasma, ip, 10 mg/kg, mice, IP 10 mg/kg, plasma, 1440 min, mean of 3 animals; read-out: Plasma concentration C (mean)
readoutType: concentration at 1440 min (ng/mL)
Give bare numbers, in ng/mL.

### Prompt Name the recorded concentration at 1440 min of the molecule listed here: O=C([O-])C1CCC2(CC1)CC(Nc1ncnc3[nH]c4c(F)cccc4c13)C2.[Na+] (stereo not shown) [Compound 77]
### Response 17

* * *

Assay: in vivo
Assay type: in vivo, mice
Details: male, CD-1, mouse, brain, ip, 10 mg/kg, mice, IP 10 mg/kg, brain, 15 min, mean of 3; read-out: Brain concentration C (mean)
readoutType: concentration at 15 min (ng/g)
Answers are plain numbers, in ng/g.

### Prompt Report measured concentration at 15 min; entry is CCc1nc2c(C)nc(C)cc2n1-c1ccc(CCNC(=O)NS(=O)(=O)c2ccc(C)cc2)cc1 [Grapiprant, reference compound]
### Response 14.9

* * *

Assay: in vivo
Format: in vivo, mice
Conditions: male, CD-1, mouse, plasma, ip, 10 mg/kg, mice, IP 10 mg/kg, plasma, 30 min, mean; read-out: Plasma concentrations of cmpd 7827_0016 in mice following IP (10 mg/kg) administration, C
readoutType: concentration at 30 min
# include the unit after the value

### Prompt Answer with the recorded concentration at 30 min for the molecule listed here: O=C(O)C1CCC2(CC1)CC(Nc1ncnc3[nH]c4c(F)cccc4c13)C2 (stereo not shown) [Compound 74]
### Response 6390 ng/mL
